Listed below: activation at 0.1 µM values for each entry.
target.desc: glucocerebrosidase (Gcase) (Homo sapiens, UniProt P04062)
Construct: micellar solution containing 10 nM GCase and 100 nM saposin C
Sequence (P04062 40-536): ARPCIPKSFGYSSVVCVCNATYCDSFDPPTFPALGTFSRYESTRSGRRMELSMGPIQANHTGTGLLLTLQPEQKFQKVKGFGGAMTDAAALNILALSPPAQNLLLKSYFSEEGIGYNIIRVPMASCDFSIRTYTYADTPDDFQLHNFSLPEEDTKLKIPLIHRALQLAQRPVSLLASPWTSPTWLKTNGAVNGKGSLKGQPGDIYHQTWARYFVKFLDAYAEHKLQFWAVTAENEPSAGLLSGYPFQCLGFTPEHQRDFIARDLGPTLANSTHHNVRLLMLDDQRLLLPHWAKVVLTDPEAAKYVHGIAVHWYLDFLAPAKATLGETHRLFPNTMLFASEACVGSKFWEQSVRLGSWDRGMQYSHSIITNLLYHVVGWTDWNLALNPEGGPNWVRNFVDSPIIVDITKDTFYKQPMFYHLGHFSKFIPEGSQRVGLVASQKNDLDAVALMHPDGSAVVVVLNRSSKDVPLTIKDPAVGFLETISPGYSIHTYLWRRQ
assay.text: Glucocerebrosidase (Gcase) activation assay, 4-methylumbelliferyl-beta-D-glucopyranoside substrate, fluorescence readout
Format: biochemical
particulars: test compound at 0.1 μM; read-out: Percent Gcase Activation, 0.1 μM Test Compound
Experimental: The ability of exemplary compounds to activate glucocerebrosidase (Gcase) was measured. A 484 μL aliquot of a 1.0 mg/mL solution of phosphatidylserine (PS) (Sigma P7769) in chloroform was evaporated under a stream of nitrogen for 1 hour. The lipid film was dissolved over 4 minutes of vigorous vortexing in 40 mL of 176 mM K2HPO4/50 mM citric acid (pH 4.7) containing 7.5 μL of triton X-100, resulting in a mixed micellar preparation with a composition of 0.32 mM triton and 0.37 mol % PS. […]

Reference set, count: 4
Cc1cc(C(F)(F)F)nc2c(C(=O)Nc3ccc(-c4cocn4)cc3)ccn12 : 10 to 20%
Cc1cc(C(F)F)n2ccc(C(=O)NC3CCCc4ccccc43)c2n1 (centres unmarked) : > 20%
CCCCO[C@H]1CC[C@H](NC(=O)c2ccn3c(C)cc(COC)nc23)CC1 : 10 to 20%
Cc1cc(C)n2ccc(C(=O)NC3CCOc4c(F)ccc(F)c43)c2n1 (centres unmarked) : > 20%

// below: activation at 0.1 µM requested for another compound
Please give the measured activation at 0.1 µM for this compound: CCCc1cc(COC)n2ccc(C(=O)NC3(C)CCOc4cc(F)c(F)cc43)c2n1 (centres unmarked)
< 10%

Origin of the recorded values: patent US11351173B2
